Entries and their MIC values follow.
# System: Staphylococcus aureus
# measurement.description: Antibacterial activity against Staphylococcus aureus NCTC 6571 after 20 hrs by broth microdilution method
# Format: functional
# experimental.parameters: NCTC 6571, 20 h
measurement.name: MIC (µg/mL)

>>> print(df.to_string())
                                   compound            test_target  unit_text  recorded_number
0  O=C1CN(/N=C/c2ccc([N+](=O)[O-])o2)C(=O)N1  Staphylococcus aureus      µg/mL               16
1  O=[N+]([O-])c1ccc(C2=NOC(c3ccc(N4CCN(Cc5cccnc5)CC4)cc3)C2)o1 (stereo not given)  Staphylococcus aureus      µg/mL               16
2  CC1(C)S[C@@H]2[C@H](NC(=O)[C@H](N)c3ccc(O)cc3)C(=O)N2[C@H]1C(=O)O  Staphylococcus aureus      µg/mL             0.25

---

# System: Staphylococcus aureus
# measurement.description: Antibacterial activity against methicillin-resistant Staphylococcus aureus EMRSA-16 after 20 hrs by broth microdilution method
# Assay type: functional
# experimental.parameters: EMRSA-16, 20 h
measurement.name: MIC

                                   molecule  measurement_name       result
0  CC(C)(C)OC(=O)N1CCN(c2ccc(C3CC(c4ccc([N+](=O)[O-])o4)=NO3)cc2)CC1 (stereo not drawn)               MIC  > 128 µg/mL
1  O=[N+]([O-])c1ccc(C2=NOC(c3ccc(-c4ccccn4)cc3)C2)o1 (stereo not drawn)               MIC  > 128 µg/mL
2  CC1(C)S[C@@H]2[C@H](NC(=O)[C@H](N)c3ccc(O)cc3)C(=O)N2[C@H]1C(=O)O               MIC  > 128 µg/mL
